# Tested on: UACC-62 melanoma
# protocolText: NCI tumour cell line growth inhibition, 48 h
Let's look at some compounds and their measured GI50.
metricName: GI50

                                   compound            system  assayresult
0  O=C(Nc1ccccc1F)c1ccc(NC2=C(Cl)C(=O)N(Cc3ccccc3)C2=O)cc1  UACC-62 melanoma      4390 nM
1  CC(C)(C)c1nnc2n(c1=O)N=CC(c1ccc(Br)cc1)S2 (stereo not given)  UACC-62 melanoma     17500 nM
2  COc1ccc2sc3c(NCCCNCCO)nc4ccccc4c3c(=O)c2c1  UACC-62 melanoma      1700 nM
3  Nc1nc(Nc2ccc3c(c2)CCC(N2CCCC2)CC3)nn1-c1cc2c(nn1)-c1ccccc1CCC2 (stereo not given)  UACC-62 melanoma      1500 nM
4  C=C1C(=O)O[C@H]2[C@H]1CC/C(COC(=O)C(=O)c1cn(C)c3ccc(OC)cc13)=C\CC[C@@]1(C)O[C@@H]21  UACC-62 melanoma      2800 nM

---

# System: OVCAR-5 ovarian
# protocolText: NCI tumour cell line growth inhibition, 48 h
metricName: GI50

>>> df
                          structurenotation  assayresult
0  COc1ccc2sc3c(NCCCNCCO)nc4ccccc4c3c(=O)c2c1      1600 nM
1  CC(C)[C@@H](CS(=O)(=O)C(C)C)N1C(=O)[C@@](C)(CC(=O)O)C[C@H](c2cccc(Cl)c2)[C@H]1c1ccc(Cl)cc1     25700 nM
2        O=C1C(=O)c2c(nc3ncccn23)-c2ccccc21       397 nM

---

# System: UACC-62 melanoma
# protocolText: NCI tumour cell line growth inhibition, 48 h
Label rule, in plain words: TGI of 8 µM and up is True, under 8 µM is False.

molecule	className
Cc1cccc(N2C(=O)C(=O)C(c3nc4ccccc4s3)C(=O)C2=O)c1C	True
C=C1[C@H](OCC(C)C)[C@@H](OC(=O)C(C)CC)[C@@H](O)C(C)(C)/C=C/[C@H](C)C(=O)[C@@]2(O)C[C@H](C)[C@H](O)[C@@H]2[C@H]1OC(=O)C(C)CC (stereo not given in full)	True
S=C1CSc2c(cnc3ccccc23)N1	True
N#Cc1nc(Nc2ccc([N+](=O)[O-])cc2)sc1N	True
Cc1cnc2[nH]c(-c3cccc(Cl)c3)cc(=O)c2c1	True
O=c1cc2cc(O)[nH]c(=O)c2c(O)[nH]1	True
Cc1nc2ccc(NCCN(C)C)c3c(=O)c4cc(O)ccc4n1c23	False
C=C1CO[C@@H]2C[C@@H]1CCC1(C)OC1CC/C(C)=C/CC[C@@]2(C)O (stereo not given in full)	True
O=C1C(=O)c2c(nc3ncccn23)-c2ccccc21	False
COc1cc2c3c(n(CCCNCCN4CCOCC4)c(=O)c2cc1OC)-c1cc2c(cc1C3=O)OCO2	False

---

# Test system: SR leukemia
# protocolText: NCI tumour cell line growth inhibition, 48 h
metricName: TGI

In [3]: df
Out[3]:
                                    compound  assayresult
 0  C=CCC(C)(C(=O)NCCC)C(=O)c1ccccc1O (stereo unspecified)     > 100 µM
 1  Cc1ccc(C2(c3ccc(C)c(O)c3C)CCN(C)CC2)c(C)c1O     > 100 µM
 2  CC(C)(C)OC(=O)N1C/C=C\C(=O)C2(OCCO2)c2ccccc21      77.9 µM
 3              COc1cc(C)cc(OC)c1/C=C/C(=O)O     > 100 µM
 4  Cc1ccc(Nc2ccc(Nc3ccc(C)cc3S(=O)(=O)O)c3c2C(=O)c2ccccc2C3=O)c(S(=O)(=O)O)c1     > 100 µM
 5               O=c1c2cccnc2ncn1CCCN1CCOCC1     > 100 µM
 6                 Cc1ccnc2sc3ccccc3c(=O)c12     > 100 µM
 7  O=C1C(CN2CCCC2)CCCC1CN1CCCC1 (stereo unspecified)      5.66 µM
 8         Oc1ccc(SCc2ccc(NCc3ccccc3)cc2)cc1      47.6 µM
 9  C/C(NC(=O)c1ccccc1)=C(/C(=O)c1ccccc1)[C@@H]1OC(C)(C)O[C@@H]1[C@H]1COC(C)(C)O1      38.5 µM
10  Cn1c(=O)c2[nH]c(-n3nc(-c4ccccc4)cc3N)nc2n(C)c1=O     > 100 µM
11  C=C1C(=O)O[C@H]2[C@H]1CC(=O)/C(C)=C\CC[C@@]1(C)O[C@@H]21    9.5 µg/mL
12  CN1N(c2ccccc2)C(=O)C2=NC=C(C#N)C(=N)C21C (stereo unspecified)     > 100 µM
13   COc1cc(C(CC(OC)OC)=C(C#N)C#N)cc(OC)c1OC     > 100 µM
14  O=C(O/N=C1/CCCC/C1=C\c1ccccc1)c1ccc(Cl)cc1     > 100 µM
15  COc1cc(/C=C/C(=O)c2cc(OC)c(OC)c(OC)c2)cc(OC)c1OC      8.41 µM

---

# Tested on: NCI-H522 lung
# protocolText: NCI tumour cell line growth inhibition, 48 h
Listed next: entries and their corresponding TGI.
metricName: TGI (µM)

                                   compound         system  inequalitysymbol  assayresult
0  O=C(Nc1ccccc1F)c1ccc(NC2=C(Cl)C(=O)N(Cc3ccccc3)C2=O)cc1  NCI-H522 lung                 =         5.34
1  OCCNc1nc2c(N3CCCC3)nc(N3CCNCC3)nc2nc1NCc1ccccc1  NCI-H522 lung                 =         30.7
2       Cc1nn(C)c(=O)c2nn(-c3ccccc3)c(C)c12  NCI-H522 lung                 >          100
3  COc1ccc(N2C(=O)C3c4[nH]c5ccccc5c4C4CCC(C(C)(C)C)CC4C3C2=O)cc1OC (stereo not given)  NCI-H522 lung                 =         33.4
4            Cc1ccc([Se][Se]c2ccc(C)cc2)cc1  NCI-H522 lung                 =         16.3

---

# Tested on: OVCAR-4 ovarian
# protocolText: NCI tumour cell line growth inhibition, 48 h
metricName: TGI

In [3]: df
Out[3]:
                                    compound  assayresult
 0  CCCN1C(=O)/C(=C(/O)C(=O)OCC)C(c2ccc(OC)c(OC)c2)C1=O (stereo unspecified)     > 100 µM
 1  CN1c2ccccc2C(C)(C)C12CC(c1ccc(Cl)c(S(=O)(=O)N3CCCC3)c1)=NO2 (stereo unspecified)     > 100 µM
 2              Nc1ccc(-c2nc3cc(F)ccc3s2)cc1     > 100 µM
 3  COc1ccc(CCC2NCCc3cc(OC)c(OC)cc32)cc1 (stereo unspecified)     > 100 µM
 4      CCc1cc2c(oc3c4ccccc4ccc23)c(=O)[nH]1      > 10 µM
 5  O=C(NC(CO)CO)c1ccc2cc(C(=O)N3CC(CCl)c4ccc([N+](=O)[O-])cc43)[nH]c2c1 (stereo unspecified)     > 100 µM
 6  c1ccc2nn(C3CCCCO3)nc2c1 (stereo unspecified)     > 100 µM
 7  O=C1C(CN2CCCC2)CCCC1CN1CCCC1 (stereo unspecified)      20.3 µM
 8            Cc1ccc([Se][Se]c2ccc(C)cc2)cc1      36.9 µM
 9         COc1ccc(Nc2c[nH]c(=O)[nH]c2=O)cc1     > 100 µM
10  COc1cc(C2C3=C(N=C4SC(C(C)=O)=C(C)N42)c2ccccc2CC3)cc(OC)c1OC (stereo unspecified)     > 100 µM

---

# Tested on: HS 578T breast
# protocolText: NCI tumour cell line growth inhibition, 48 h
# cutoff 7 µM applies to TGI; >= gives true, < gives false

>>> df
                                   compound  classname
0  O=C(CC(=O)c1ccccc1NC1=Cc2ccccc2C(=O)C1=O)C(=O)NC1=C(Cl)C(=O)c2ccccc2C1=O      false
1  O=[N+]([O-])c1ccc2c(c1)S(=O)c1ccccc1-2 (stereo unspecified)       true
2  Cc1nn(-c2ccccc2)c2c1N=C(C(=O)O)CC(c1ccccc1)=N2       true
3  Cc1ccc(CC(=O)Nc2ccc(NC(=O)CNC(=O)/C=C/c3ccc(-c4ccccc4)cc3)cc2C(=O)c2ccccc2)cc1       true
4          CC(C)C(/C=C/c1ccccc1)=N\NC(=S)NN       true
5  O=C1/C(=C2\SCC(=O)N2c2ccccc2)SC(=S)N1c1ccccc1       true
6  COC1=CCC2=C(CCN(C(=O)C3CCC3)C2Cc2ccc(OC)c(O)c2)C1 (stereo unspecified)       true
7   CCc1nc(N)nc(N)c1-c1ccc(Cl)c(N=NN(C)C)c1       true
8                    Cc1ccsc1/C=N/Nc1ccccn1       true
9  CCCCC(=O)OC[n+]1ccc2c(C)c3[nH]c4ccc(OC)cc4c3c(C)c2c1      false
